# Experimental Target: DNMT3B catalytic domain (mouse) (UniProt O88509)
# Sequence (O88509 558-859): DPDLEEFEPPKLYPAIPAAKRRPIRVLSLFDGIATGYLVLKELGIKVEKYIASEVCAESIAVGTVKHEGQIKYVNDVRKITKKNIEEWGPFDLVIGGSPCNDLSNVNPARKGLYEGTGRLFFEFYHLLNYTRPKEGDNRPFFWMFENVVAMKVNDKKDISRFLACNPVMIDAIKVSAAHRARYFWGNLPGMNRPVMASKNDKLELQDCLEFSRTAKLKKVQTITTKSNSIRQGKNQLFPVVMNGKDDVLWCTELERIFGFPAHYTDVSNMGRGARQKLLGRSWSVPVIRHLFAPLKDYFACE
# Assay Explanation: relative CpG methylation activity (normalised to average over all NNNCGNNN flanks) (relative (1 = mean)); higher = more methylation of the central CpG
# Experimental Context: system: in vitro, murine catalytic domain; CpG state: hemimethylated substrate pool; residues: 558-859
In all, about 4,100 sequences were measured (“relative CpG methylation activity (normalised to average over all NNNCGNNN flanks)”: median about 0.94, highest 2% from about 1.9 on). The sample holds the highest values, similar sequences and a random draw of the others, so the mix is not that of the screen.
Reported Metric: relative CpG methylation activity
Give bare numbers.

Record excerpt, results attached:
- Record Sequence: "CTACGGCT"
  relative CpG methylation activity: 2.28
- Record Sequence: "TTACGATG"
  relative CpG methylation activity: 1.53
- Record Sequence: "AGTCGTCG"
  relative CpG methylation activity: 0.57
- Record Sequence: "TCACGATA"
  relative CpG methylation activity: 1.76
- Record Sequence: "GTACGGCT"
  relative CpG methylation activity: 1.56
- Record Sequence: "TTACGGCC"
  relative CpG methylation activity: 1.97
- Record Sequence: "TCGCGGAC"
  relative CpG methylation activity: 0.818
- Record Sequence: "TACCGCTA"
  relative CpG methylation activity: 0.483
- Record Sequence: "TTACGAGT"
  relative CpG methylation activity: 1.74
- Record Sequence: "TTACGATT"
  relative CpG methylation activity: 2.01

For the 4 sequences below, give their relative CpG methylation activity values.
1. ACCCGGTT
2. CATCGTCC
3. GGACGCGG
4. TTACGGAC

1.29
0.944
0.51
1.85

For the 4 sequences below, give their relative CpG methylation activity values.
1. CTACGGTT
2. CTACGGAG
3. CTACGAGC
4. CCACGGCT

1: 1.76; 2: 1.52; 3: 2.12; 4: 1.89

====

For each entry below, report its relative CpG methylation activity value.
# Experimental Target: DNMT3B catalytic domain (mouse)
# Assay Explanation: relative CpG methylation activity (normalised to average over all NNNCGNNN flanks) (relative (1 = mean)); higher = more methylation of the central CpG
# Experimental Context: system: in vitro, murine catalytic domain; CpG state: hemimethylated substrate pool; residues: 558-859
Over roughly 4,100 sequences, “relative CpG methylation activity (normalised to average over all NNNCGNNN flanks)” has its median near 0.94; the highest 2% begin near 1.9. The entries come from a sample that favours the highest values as a whole.
One number for each entry.

- Record Sequence: "ATTCGGCC"
  relative CpG methylation activity: 2.04
- Record Sequence: "TAGCGCCC"
  relative CpG methylation activity: 0.741

For the 7 sequences below, give their relative CpG methylation activity values.
1. AAACGCGC
2. TTACGGTT
3. CTTCGAGG
4. ATTCGGCG
5. TACCGGCC
6. GTACGGCG
7. AAACGCGG

[1.46, 1.85, 1.65, 1.77, 1.52, 2.05, 1.24]

For the 7 sequences below, give their relative CpG methylation activity values.
1. AGTCGACA
2. CTACGGAC
3. AGCCGAGC
4. CTTCGAGA
5. TCTCGCGG
6. ATTCGAGA
7. TCACGGCT

1: 1.24; 2: 1.64; 3: 1.24; 4: 1.95; 5: 0.647; 6: 1.83; 7: 1.83

For the 5 sequences below, give their relative CpG methylation activity values.
1. TAACGATA
2. ATTCGGCT
3. GTACGGTG
4. CATCGAAC
5. GTACGGAG

[1.81, 1.69, 1.48, 1.6, 1.39]

Reported relative CpG methylation activity for CTGCGGCC : what is it?
1.22

====

# Experimental Target: DNMT3B catalytic domain (mouse) (UniProt O88509)
# Assay Explanation: relative CpG methylation activity (normalised to average over all NNNCGNNN flanks) (relative (1 = mean)); higher = more methylation of the central CpG
# Experimental Context: system: in vitro, murine catalytic domain; CpG state: hemimethylated substrate pool; residues: 558-859
Whole data set: some 4,100 sequences, median “relative CpG methylation activity (normalised to average over all NNNCGNNN flanks)” near 0.94, cut for the highest 2% near 1.9. The entries come from a sample that favours the highest values as a whole.
For each entry below, report its relative CpG methylation activity value.
One number for each entry.

Record excerpt, results attached:
- Record Sequence: "ACGCGTGG"
  relative CpG methylation activity: 0.317
- Record Sequence: "GTACGAGC"
  relative CpG methylation activity: 1.83
- Record Sequence: "TTCCGAGG"
  relative CpG methylation activity: 1.42
- Record Sequence: "GTACGAGT"
  relative CpG methylation activity: 1.48
- Record Sequence: "CTACGAGT"
  relative CpG methylation activity: 1.96
- Record Sequence: "TTCCGAGC"
  relative CpG methylation activity: 1.9
- Record Sequence: "GACCGTTT"
  relative CpG methylation activity: 0.177
- Record Sequence: "GACCGTCT"
  relative CpG methylation activity: 0.495

For the 3 sequences below, give their relative CpG methylation activity values.
1. AGGCGTCT
2. ATTCGCGC
3. TTCCGAGA

1: 0.521; 2: 0.947; 3: 1.6

====

For each entry below, report its relative CpG methylation activity value.
# Experimental Target: DNMT3B catalytic domain (mouse)
# Assay Explanation: relative CpG methylation activity (normalised to average over all NNNCGNNN flanks) (relative (1 = mean)); higher = more methylation of the central CpG
# Experimental Context: system: in vitro, murine catalytic domain; CpG state: hemimethylated substrate pool; residues: 558-859
The full ranking holds about 4,100 sequences; the median of “relative CpG methylation activity (normalised to average over all NNNCGNNN flanks)” is about 0.94, and the highest 2% start at about 1.9. The sample holds the highest values, similar sequences and a random draw of the others, so the mix is not that of the screen.
One number for each entry.

Record excerpt, results attached:
- Record Sequence: "CTTCGGGC"
  relative CpG methylation activity: 2.18
- Record Sequence: "TGACGGAT"
  relative CpG methylation activity: 0.829
- Record Sequence: "ATTCGGGC"
  relative CpG methylation activity: 1.72
- Record Sequence: "CGACGGCC"
  relative CpG methylation activity: 1.46
- Record Sequence: "GCTCGTCA"
  relative CpG methylation activity: 0.561
- Record Sequence: "CCACGGCC"
  relative CpG methylation activity: 1.7
- Record Sequence: "CGACGTGC"
  relative CpG methylation activity: 0.674
- Record Sequence: "GTTCGTGA"
  relative CpG methylation activity: 0.411

For the 6 sequences below, give their relative CpG methylation activity values.
1. AGGCGCGA
2. CTTCGGGT
3. GTCCGGGC
4. AGTCGGGT
5. ATCCGGCC
6. GTACGGGA

[0.281, 1.33, 1.53, 1.16, 1.48, 1.73]

====

# Experimental Target: DNMT3B catalytic domain (mouse)
# Assay Explanation: relative CpG methylation activity (normalised to average over all NNNCGNNN flanks) (relative (1 = mean)); higher = more methylation of the central CpG
# Experimental Context: system: in vitro, murine catalytic domain; CpG state: hemimethylated substrate pool; residues: 558-859
Over roughly 4,100 sequences, “relative CpG methylation activity (normalised to average over all NNNCGNNN flanks)” has its median near 0.94; the highest 2% begin near 1.9. Shown is part of a subset that was picked to be rich in the highest values.
Reported Metric: relative CpG methylation activity
Numbers only.

Record excerpt, results attached:
- Record Sequence: "CAACGCGA"
  Experimental Target: "DNMT3B catalytic domain (mouse)"
  Reported Metric: "relative CpG methylation activity"
  Observed Measurement: 0.965
- Record Sequence: "CACCGCGT"
  Experimental Target: "DNMT3B catalytic domain (mouse)"
  Reported Metric: "relative CpG methylation activity"
  Observed Measurement: 0.402
- Record Sequence: "CTGCGCTG"
  Experimental Target: "DNMT3B catalytic domain (mouse)"
  Reported Metric: "relative CpG methylation activity"
  Observed Measurement: 0.95
- Record Sequence: "CTTCGGCG"
  Experimental Target: "DNMT3B catalytic domain (mouse)"
  Reported Metric: "relative CpG methylation activity"
  Observed Measurement: 1.67
- Record Sequence: "CGCCGTAG"
  Experimental Target: "DNMT3B catalytic domain (mouse)"
  Reported Metric: "relative CpG methylation activity"
  Observed Measurement: 0.147

For the 8 sequences below, give their relative CpG methylation activity values.
1. GCACGCTG
2. TCCCGGCT
3. GTTCGGGT
4. TTTCGGCG
5. AAGCGTTT
6. ATCCGAGA
7. TTTCGGGT
8. GAACGGCG

1: 0.98; 2: 1.95; 3: 1.37; 4: 1.79; 5: 0.413; 6: 1.4; 7: 2.02; 8: 1.53

For the 6 sequences below, give their relative CpG methylation activity values.
1. CTACGGTC
2. GTTCGGCT
3. GTGCGCGT
4. CCCCGGCC
5. TTTCGGCC
6. TTTCGGGA

1. 1.85
2. 1.75
3. 0.649
4. 1.77
5. 1.65
6. 1.79

For the 2 sequences below, give their relative CpG methylation activity values.
1. ACCCGGCT
2. GTCCGTCT

1: 1.67; 2: 0.827

Reported relative CpG methylation activity for ATACGGTC : what is it?
1.68
